These entries and their values trace back to PubChem BioAssay.

Tested on: Plasmodium falciparum Sir2 (PF13_0152, Sir2A)
Procedure Details: pfSir2 binders on small-molecule microarrays, primary screen, biochemical, small-molecule microarray, 635 nm fluorescence (AID 1098);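 also: score merges spot fluorescence intensity with its signal-to-noise ratio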
Assay Setup: small-molecule microarray binding, fluorescence 635 nm; higher = more signal
In this section we review reported composite z-score values for a set of compounds.
Metric: composite z-score

1) CCN(CC)c1ccc(N2CC=CC34O[C@@H]5/C=C\CCCOC(=O)C5[C@H]3C(=O)N(C(CO)C(C)C)[C@@H]4C2=O)cc1 (some centres not stated) ... 1.23
2) [N-]=[N+]=NCc1ccccc1[C@@H]1OC(c2ccc(OCCCO)cc2)=N[C@]1(Cc1ccccc1)C(=O)N1CCCCC1 ... 1.36
3) Cc1ccccc1C(O)C1C=CC2C(=O)N(C)C(=O)C2N1Nc1ccccc1 (configuration not stated) ... 1.06
4) CCCC[C@@H]1C[C@H]1[C@@H](NC(=O)c1ccc(-c2ccccc2)cc1)c1ccc(-c2ccccc2)cc1 ... -0.508
5) CC(C)NC(=O)[C@@H]1c2ccccc2C(=O)N(Cc2ccccc2Cl)[C@H]1c1ccc(CO)cc1 ... 0.284
6) O=C1O[C@@H](c2ccccc2)[C@@H](c2ccccc2)N2[C@@H](c3ccccc3OCCO)[C@]3(C(=O)Nc4ccc(C#CC5(O)CCCCCC5)cc43)[C@@H](C(=O)Nc3nc4ccccc4s3)[C@H]12 ... 1.04
7) O=C1OCCC=C[C@H]2OC34C=CCN(Cc5ccccc5)C(=O)[C@H]3N(CCCCCCO)C(=O)[C@@H]4C12 (some centres not stated) ... 1.61
